# screen value listing for each entry below
B1: MBOAT1 peptide 17-32 (Lysophospholipid acyltransferase 1), 16-mer library wild type / NSP3 ADRP (ORF1ab Nsp3b ADRP, residues 1023-1192) (parent)
chain 1: STYLHPLSELLGIPLD
chain 2: not shown

- Variants of: B1
- Condition info: with NSP3 ADRP (ORF1ab Nsp3b ADRP, residues 1023-1192); bait immobilised on MaxiSorp plates (10 µg), library pre-cleared on GST, 2 h binding at 4 °C, five washes; one round per day, days 1-4; value from days 2 and 3; keep out of graded; scale: average fractional NGS count over selection days 2 and 3
Metric: screen value

INSERT INTO results (var, numeric_readout) VALUES
  ('chain 1 L11W', 0.0297),
  ('chain 1 L10I', '1.63e-05'),
  ('chain 1 T2L', 0.000208),
  ('chain 1 E9Y', 0),
  ('chain 1 E9H', 0);
